# Test system: anesthetized juvenile pigs
# protocol.text: animal or person
# Assay type: in vivo
# measurement.parameters: pig; at 80-85% neuromuscular blocking dose
measurement.label: VB (vagal block) (%)
Just the number please, in %, no unit attached.

Entry under review: CC(=O)Oc1ccc(C[N+]2(C)[C@@H]3CC[C@H]2C[C@@H](OC(=O)CCCC(=O)O[C@H]2C[C@H]4CC[C@@H](C2)[N+]4(C)Cc2ccc(OC(C)=O)c(OC(C)=O)c2)C3)cc1OC(C)=O.[Br-].[Br-] (some centres unmarked) . Reported VB (vagal block)?
41

Okay, and CCC(=O)Oc1ccc(C[N+]2(C)[C@@H]3CC[C@H]2C[C@@H](OC(=O)C2CCC2C(=O)O[C@H]2C[C@H]4CC[C@@H](C2)[N+]4(C)Cc2ccc(OC(=O)CC)c(OC(=O)CC)c2)C3)cc1OC(=O)CC.[Br-].[Br-] (some centres unmarked) ?
50

Okay, and CCCCC[N+]1(C)[C@@H]2CC[C@H]1C[C@@H](OC(=O)CCCCCCCCC(=O)O[C@H]1C[C@H]3CC[C@@H](C1)[N+]3(C)CCCCC)C2.[Br-].[Br-] (some centres unmarked) [reference compound] ?
50

Okay, and CCC(=O)Oc1c(OC)cc(C[N+]2(C)[C@@H]3CC[C@H]2C[C@@H](OC(=O)C2CCCC(C(=O)O[C@H]4C[C@H]5CC[C@@H](C4)[N+]5(C)Cc4cc(OC)c(OC(=O)CC)c(OC)c4)C2)C3)cc1OC.[Br-].[Br-] (some centres unmarked) ?
30

Okay, and C[N+]1(CC=Cc2ccccc2)[C@@H]2CC[C@H]1C[C@@H](OC(=O)CCCCCCCCCCC(=O)O[C@H]1C[C@H]3CC[C@@H](C1)[N+]3(C)CC=Cc1ccccc1)C2.[Br-].[Br-] (some centres unmarked) [reference compound] ?
27

====

# Test system: rabbits
# protocol.text: In vivo neuromuscular block and cardiovascular side effects, rabbit (Example 8, Table 7)
# measurement.parameters: spontaneous recovery, 25-75% neuromuscular response
Please provide measured RI (recovery index) for the entries that follow.
I'd appreciate it if you included the unit after the number.

I'm curious: which RI (recovery index) was measured for CCC(=O)Oc1ccc(C[N+]2(C)C3CCCC2CC(OC(=O)C2CCC2C(=O)OC2CC4CCCC(C2)[N+]4(C)Cc2ccc(OC(=O)CC)c(OC(=O)CC)c2)C3)cc1OC(=O)CC.[Br-].[Br-] (stereo not drawn) tested on rabbits?
0.5 min

Okay, and COc1cc(C[N+]2(C)[C@@H]3CC[C@H]2C[C@@H](OC(=O)C2CCC2C(=O)O[C@H]2C[C@H]4CC[C@@H](C2)[N+]4(C)Cc2ccc(OC(C)=O)c(OC)c2)C3)ccc1OC(C)=O.[Br-].[Br-] (stereo partly drawn) ?
0.55 min

Okay, and COc1ccc(CC2c3cc(OC)c(OC)cc3CC[N+]2(C)CCC(=O)OCCCCCOC(=O)CC[N+]2(C)CCc3cc(OC)c(OC)cc3C2Cc2ccc(OC)c(OC)c2)cc1OC (stereo not drawn) [Atracurium, reference compound] ?
5.7 min

====

Please provide measured VB (vagal block) for the entries that follow.
# Tested on: anesthetized rats (evoked responses of anterior tibial muscle)
# protocol.text: In vivo neuromuscular block and cardiovascular side effects, anesthetized rat (Example 8, Table 3)
# measurement.parameters: rat; at 80-85% neuromuscular blocking dose
Just the number please, in %, no unit attached.

Entry under review: COc1cc(C[N+]2(C)[C@@H]3CC[C@H]2C[C@@H](OC(=O)C2CCCC(C(=O)O[C@H]4C[C@H]5CC[C@@H](C4)[N+]5(C)Cc4ccc(OC(C)=O)c(OC)c4)C2)C3)ccc1OC(C)=O.[Br-].[Br-] (stereo partly drawn) . Reported VB (vagal block)?
30

Okay, and COc1cc(C[N+]2(C)[C@@H]3CC[C@H]2C[C@@H](OC(=O)C2CCC2C(=O)O[C@H]2C[C@H]4CC[C@@H](C2)[N+]4(C)Cc2cc(OC)c(OC(C)=O)c(OC)c2)C3)cc(OC)c1OC(C)=O.[Br-].[Br-] (stereo partly drawn) ?
20

Okay, and C[N+]1(C)[C@@H]2CC[C@H]1C[C@@H](OC(=O)CCCC(=O)O[C@H]1C[C@H]3CC[C@@H](C1)[N+]3(C)C)C2.[I-].[I-] [reference compound] ?
100

Okay, and CCC(=O)Oc1ccc(C[N+]2(C)[C@@H]3CC[C@H]2C[C@@H](OC(=O)CCCCC(=O)O[C@H]2C[C@H]4CC[C@@H](C2)[N+]4(C)Cc2ccc(OC(=O)CC)c(OC(=O)CC)c2)C3)cc1OC(=O)CC.[Br-].[Br-] (stereo partly drawn) ?
18

Okay, and COc1cc(C[N+]2(C)[C@@H]3CC[C@H]2C[C@@H](OC(=O)C2CCC2C(=O)O[C@H]2C[C@H]4CC[C@@H](C2)[N+]4(C)Cc2ccc(OC(C)=O)c(OC)c2)C3)ccc1OC(C)=O.[Br-].[Br-] (stereo partly drawn) ?
20

Okay, and COc1cc(C[N+]2(C)C3CCC2CC(OC(=O)C2C4C=CC(C4)C2C(=O)OC2CC4CCC(C2)[N+]4(C)Cc2ccc(OC(C)=O)c(OC)c2)C3)ccc1OC(C)=O.[Br-].[Br-] (stereo not drawn) ?
25

Cited source: patent US6376510B1
